The measurements presented in this section are drawn from patent US20050124683A1.

target: HIV-1 protease (Human immunodeficiency virus type 1 group M subtype B, UniProt P04585, Q495S); construct: made in house; assay: HIV-1 Protease RET assay (Ki, resonance energy transfer); type: biochemical; conditions: Q7S mutant HIV-1 protease; read-out: Ki (nm)
pKi: −log10 of the molar value.
Assign pKi to each entry below.

Recorded pKi of Cc1ccccc1CNC(=O)[C@H]1N(C(=O)[C@@H](O)[C@H](Cc2ccccc2)NC(=O)c2cccc(O)c2C)CC(O)C1(C)C (stereo partly shown) , please.
> 10.00

// repeat for Cc1c(O)cccc1C(=O)N[C@@H](Cc1ccccc1)[C@H](O)C(=O)N1CC(O)C(C)(C)[C@H]1C(=O)NCC(C)C (stereo partly shown) and report
9.15

Then this compound: Cc1cc(O)c(C)c(C(=O)N[C@@H](Cc2ccccc2)[C@H](O)C(=O)N2CC(F)(F)C(C)(C)[C@H]2C(=O)NCc2ccncc2C)c1
> 10.00

Next record, please: Cc1cc(O)c(C)c(C(=O)N[C@@H](Cc2cccc(F)c2)[C@H](O)C(=O)N2CC(F)(F)C(C)(C)[C@H]2C(=O)NCC(F)(F)F)c1
> 10.00

---

Provide the recorded Ki for the entries that follow.
Target: HIV-1 protease (Human immunodeficiency virus type 1 group M subtype B, UniProt P04585, Q495S)
Construct: made in house
Assay: HIV-1 Protease RET assay (Ki, resonance energy transfer)
Type: biochemical
Settings: Q7S mutant HIV-1 protease; read-out: Ki (nm)
Procedure: Ki's for the inhibitors of HIV-1 protease were determined using a resonance energy transfer (RET) assay. […] This enzyme is first partially purified as inclusion bodies from cell lysate. […] The commercially available peptide substrate (Molecular Probes Cat. # H-2930) RE(EDANS)SQNYPIVQK(DABCYL)R is used to assess activity and Ki's. This peptide is cleaved quantitatively by HIV-1 Pr at the Tyr-Pro bond. […]

// lookup Ki for CC[C@H](C)CNC(=O)[C@H]1N(C(=O)[C@@H](O)[C@H](Cc2ccccc2)NC(=O)c2cccc(O)c2C)CC(F)(F)C1(C)C [drawing 143]
< 0.1 nM

Next up: COC[C@H](C)NC(=O)[C@H]1N(C(=O)[C@@H](O)[C@H](Cc2cccc(F)c2)NC(=O)c2cccc(O)c2C)CC(F)(F)C1(C)C
< 0.1 nM

Moving on to the next compound: Cc1c(O)cccc1C(=O)N[C@@H](Cc1cccc(F)c1)[C@H](O)C(=O)N1CC(F)(F)C(C)(C)[C@H]1C(=O)NCC(C)(C)C [drawing 136]
< 0.1 nM

Quick one: COC1CN(C(=O)[C@@H](O)[C@H](Cc2ccccc2)NC(=O)c2cccc(O)c2C)[C@H](C(=O)NCc2ccccc2F)C1(C)C (stereo partly drawn)
0.34 nM

One more compound: CC(C)CNC(=O)[C@H]1N(C(=O)[C@@H](O)[C@H](Cc2cccc(F)c2)NC(=O)c2cccc3c2CCN3)CC(F)(F)C1(C)C
< 0.1 nM

Now consider Cc1ccc(O)c(C)c1C(=O)N[C@@H](Cc1ccccc1)[C@H](O)C(=O)N1CC(F)(F)C(C)(C)[C@H]1C(=O)NCC(C)C .
< 0.1 nM
